# Measurement target: human MASP-2 (in normal human serum) (human, UniProt O00187 16-686)
# Sequence (O00187 16-686 limits assumed): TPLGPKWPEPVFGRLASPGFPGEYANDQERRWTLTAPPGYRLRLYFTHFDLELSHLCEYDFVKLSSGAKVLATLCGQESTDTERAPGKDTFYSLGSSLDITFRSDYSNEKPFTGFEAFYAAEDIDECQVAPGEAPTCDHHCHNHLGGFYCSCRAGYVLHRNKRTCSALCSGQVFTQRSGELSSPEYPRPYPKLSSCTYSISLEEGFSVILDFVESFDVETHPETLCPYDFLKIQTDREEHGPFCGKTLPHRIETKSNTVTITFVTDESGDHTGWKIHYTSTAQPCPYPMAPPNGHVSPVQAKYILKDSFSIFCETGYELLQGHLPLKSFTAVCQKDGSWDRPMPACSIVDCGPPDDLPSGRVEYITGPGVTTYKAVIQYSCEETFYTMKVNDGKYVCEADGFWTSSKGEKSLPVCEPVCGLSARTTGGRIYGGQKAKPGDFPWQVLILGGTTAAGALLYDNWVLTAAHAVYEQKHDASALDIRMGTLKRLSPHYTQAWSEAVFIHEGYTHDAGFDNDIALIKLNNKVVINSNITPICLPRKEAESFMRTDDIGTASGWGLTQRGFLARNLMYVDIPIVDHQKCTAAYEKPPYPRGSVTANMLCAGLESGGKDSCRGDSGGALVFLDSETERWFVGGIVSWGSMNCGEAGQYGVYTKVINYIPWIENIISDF
# Method notes: cell-based or functional assay
Where no end group is shown, it is not given here.
# IC50, lectin pathway C4 deposition, human serum listing for each entry below
Report the value in nM with no unit label.

Some solved cases for reference:
EVO2d (designed binder, not fully specified; cysteine pairing not given here, Modified TFPI-D2 Kunitz domain; made as m1) KPDFCFLEEDPGPCRALKRRYFYNNQTKQCERFKYGGCLGNMNNFETLEECKNICEDG; 60.3
EVO21c (designed binder, not fully specified; cysteine pairing not given here, Modified TFPI-D2 Kunitz domain; made as m1) KPDFCFLEEDPGPCRALKRRYFYNNQTKQCERFGYGGCFGNMNNFVTLEECKNICEDG; 6.2
EVO211a (designed binder) KPDFCFLEEDPGWCRALKRRYFYNNQTKQCERFGYGGCFGNMNNFVTLEECKNICEDG; 9.1

Alright, here's another binder for you.
input: Note down IC50, lectin pathway C4 deposition, human serum recorded for EVO21b (designed binder, not fully specified; cysteine pairing not given here) KPDFCFLEEDPGPCRALKRRYFYNNQTKQCERFGYGGCLGNMNNFVTLEECKNICEDG
output: 4.3
